Attribution: PubChem BioAssay (NCATS)

Test system: Ubiquitin carboxyl-terminal hydrolase 1 (Homo sapiens)
Assay explanation: Inhibitors of USP1/UAF1: Pilot qHTS (AID 504865); also: nearly all actives have a fitted effect of over 35% in size
Condition info: purified USP1/UAF1, Ub-rhodamine cleavage fluorescence; series mostly up to 114 µM
Results filed as inconclusive are left out. The source made the active and inactive calls. Calls follow the shape of the dose curve; as a rule, active = well fitted inhibition curve with a large enough effect; inconclusive = small, poorly fitted or top-dose-only effect; inactive = flat fitted curve, though single readings scatter.
Outcomes: T for active, F for inactive

| Molecule | Cat |
| --- | --- |
| Nc1ncnc2c1nc(Br)n2C1CC(O)C(CO)O1 (stereo unspecified) | F |
| Cc1cc(O)c(C=O)c2c1C(=O)Oc1c(C)c(O)c3c(c1O2)C(O)OC3=O (stereo unspecified) | T |
| COc1cc(OC)c(C(C)=O)c(O)c1C | F |
| COC1C(O)C(CO)OC1n1c(Br)nc2c(=O)[nH]c(N)nc21 (stereo unspecified) | F |
| CC1CC2C3CCC4=CC(=O)C=C[C@]4(C)[C@@]3(Cl)C(O)C[C@]2(C)C1(OC(=O)c1ccco1)C(=O)CCl (stereo partly specified) | F |
| CC1O[C@@H](O[C@H]2C(Oc3cc(O)c4c(c3)OC(c3ccc(O)cc3)CC4=O)OC(CO)C(O)C2O)C(O)C(O)C1O (stereo partly specified) | F |
| CC12CCC3C(=CCc4cc(O)ccc43)C1CCC2=O (stereo unspecified) | F |
| CO[C@]1(NC(=O)[C@H](C(=O)O)c2ccc(O)cc2)C(=O)N2C(C(=O)O)=C(CSc3nnnn3C)CO[C@H]21 | F |
| COc1ccc2c(c1)[C@]1(C)CCC(=O)C[C@H]1CC2 | F |
| COc1ccc(CNc2ncncc2-c2ccccc2CN(C)C)c(OC)c1 | F |
| CC(=O)OC1CC[C@]2(C)C(=CCC3C4CCC(C(C)CCCC(C)C)[C@]4(C)CCC32)C1 (stereo partly specified) | F |
| CCCCCC1C(=O)CCC1CC(=O)OC (stereo unspecified) | F |
| NC(CSCSCC(N)C(=O)O)C(=O)O (stereo unspecified) | F |
| Cc1ccnc(N)c1 | F |
| CCC(=O)OCC(=O)C1(OC(=O)CC)C(C)CC2C3C(Cl)CC4=CC(=O)C=C[C@@]4(C)C3C(O)C[C@@]21C (stereo partly specified) | F |
| Nc1nc(=S)c2ncn([C@H]3O[C@@H](CO)[C@@H](O)[C@@H]3O)c2[nH]1 | F |
| CCOC(=O)C(CCc1ccccc1)NC(C)C(=O)N1C(C(=O)O)CC2CCCC21 (stereo unspecified) | F |
| CN1CC[C@@]23c4ccccc4N[C@H]1[C@]21CCN(C)[C@@H]3Nc2ccccc21 | F |
| O=C(/C=C/c1ccc(O)c(O)c1)O[C@H]1C[C@@](O)(C(=O)O)CC(O)C1O (stereo partly specified) | F |
| COc1cccc(/C=C/C(=O)O)c1C(C)C | F |
| CC(=O)OC1CC2C(C)(C)C(O)C=C[C@@]2(C)C2CC[C@@]3(C)C(c4ccoc4)OC(=O)C4OC43[C@]12C (stereo partly specified) | F |

###

Assay explanation: Confirmation and Secondary Assay for Modulators of Hemoglobin Beta Chain Splicing at IVS2 654 locus (AID 910);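 also: HeLa cells stably carrying EGFP split by mutant beta-globin IVS2-654 intron; per-well total GFP intensity by laser scanning cytometry after 2-day treatment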
Condition info: HeLa EGFP-654 splicing reporter, GFP fluorescence, 48 h; series mostly up to 46.1 µM
Active and inactive are the calls of the source. Calls follow the shape of the dose curve; as a rule, active = well fitted activation curve with a large enough effect; inconclusive = small, poorly fitted or top-dose-only effect; inactive = flat fitted curve, though single readings scatter.

| Molecule | outcome |
| --- | --- |
| CC(=O)OC1CC2C(C)(C)C(=O)CC[C@]2(C)C2CC[C@@]3(C)C(c4ccoc4)OC(=O)C4OC43[C@]12C (stereo not given in full) | inactive |
| COc1ccc2c(c1)OCC(Cc1ccc(OC)c(OC)c1)C2O (stereo not given) | inactive |
| CC(=O)O[C@](C)(CCC=C(C)C)C1CC=C(C)CC1 (stereo not given in full) | inactive |
| C=Cc1c(C)/c2[n-]/c1=C\c1[n-]c(c(CC)c1C)/C=c1\[n-]c3c(c1C)C(=O)C(C(=O)[O-])C=3c1[n-]c(c(C)c1CCC(=O)[O-])\C=2.[Cu].[Na+].[Na+] (stereo not given) | inactive |
| COc1cc(OC)c2c(c1Cl)OC1(C2=O)C(O)=CC(=O)CC1C (stereo not given) | inactive |
